- System: L1210 leukemia ip in BDF1 mice, survival T/C
- Assay overview: NCI In Vivo Anticancer Drug Screen. Data for tumor model L1210 Leukemia (intraperitoneal) in B6D2F1 (BDF1) mice
- Conditions: endpoint: mean survival time; dose: 25.0 mg/kg/injection; schedule: Q04DX003 (ip); vehicle: Klucel (hydroxypropylcellulose) (HPC); higher = longer survival
Inconclusive results and toxic doses are left out.
Reported metric: T/C

>  <Compound>
O=S(=O)(F)c1cccc2nsnc12

>  <Reported metric>
T/C

>  <Recorded measurement>
95 % of control

$$$$
>  <Compound>
C#CC(O)c1ccccc1 (stereo not drawn)

>  <Reported metric>
T/C

>  <Recorded measurement>
99 % of control

$$$$
>  <Compound>
CC(C)CC(C=NCC(CCN(C)C)(CC(C)C)c1cccc2ccccc12)(CCN(C)C)c1cccc2ccccc12 (stereo not drawn)

>  <Reported metric>
T/C

>  <Recorded measurement>
94 % of control

$$$$
